test: Human liver microsomal stability of compound in microsomal protein, PBS buffer pH 7.4, NADPH, glucose-6-phosphate and glucose-6-phosphate dehydrogenase media. Aliquotes were taken at 5 time points and after stopping the reaction, supernatants were analyzed using HPLC coupled with a tandem mass spectrometer. The elimination constant, half-life, and intrinsic clearance are determined as results using linear regression analysis.; assay type: ADME, microsomes, Microsome; details: microsomes; also: time not given here
Hi there, I'd appreciate the recorded Remaining (without cofactor) for every entry that follows.
Kindly answer with a numeric value in %, unit omitted.

# lookup: Remaining (without cofactor) of `NCc1cccc(NC(=O)c2cc(Cl)cc(NC(=O)OCc3ccccc3)c2)c1` 102.839

Quick one: `O=C(O)c1cc(Cl)ccc1NS(=O)(=O)c1ccc(-c2ccccc2Cl)cc1` 109.106

// next record `C=CC[C@H]1NCc2cc(NC(=O)c3cc(F)cc4[nH]ncc34)ccc21` 93.037

Query `NCc1cccc(NC(=O)[C@@H](NC(=O)OCc2ccccc2)C2CCCCC2)c1` next 108.836

// same read-out, input: `CO[C@H]1C[C@H](n2ncc3c(C(=O)Nc4ccc5c(c4)CNC5)cc(Cl)cc32)C1` 107.995

Cool, now `CNC(=O)c1cc(Cl)c(F)cc1NS(=O)(=O)c1ccc(Oc2ccccc2Cl)cc1` 112.27

Ok, now `O=C(O)Cn1ncc2cc(-c3cc(Cl)cc(NC(=O)OCc4ccccc4)c3)ccc21` 100.106

Follow-up entry: `O=C(Nc1cc(Br)c2c(c1)CNC2)c1cc(F)cc2[nH]ncc12` 100.794

Same for `NCc1cccc(NC(=O)c2cc(Cl)cc(CN)c2)c1` 104.813

Same thing, different compound: `C=CC[C@H](Nc1cccc(-c2nn[nH]n2)c1)c1cc(Cl)cc(NC(=O)OCc2ccccc2)c1` 93.066

Consider next the compound `CNC(=O)[C@H](Nc1cc(CN)cc(C(=O)O)c1)c1cc(Cl)cc(C2CC2)c1` in the same way. 103.999

How about this compound: `COc1cc(Cc2c(-c3ccc(F)cc3)noc2C)nc(N2CCNCC2)n1` 110

Here is the next compound: `CN(c1ccc2c(c1)CNC2)[C@H](C(=O)NCC(F)F)c1cc(Cl)cc(C2CC2)c1` 95.997

---

test: Mouse liver microsomal stability of compound in microsomal protein, PBS buffer pH 7.4, NADPH, glucose-6-phosphate and glucose-6-phosphate dehydrogenase media. Aliquotes were taken at 5 time points and after stopping the reaction, supernatants were analyzed using HPLC coupled with a tandem mass spectrometer. The elimination constant, half-life, and intrinsic clearance are determined as results using linear regression analysis.; type: ADME, microsomes, Microsome; conditions: microsomes
Exercise: state measured Remaining for each of the molecules provided.
Number in %, nothing else.

Fill blank: measured Remaining of the molecule `O=C(Nc1ccc2c(c1)CNC2)c1ccc2[nH]cc(C3CCNCC3)c2c1` is ____. 86.057

Now consider `CNC(=O)c1cc(Br)cc([C@H](Nc2ccc3c(c2)CNC3)C(=O)NCC(F)F)c1` . 92.112

Also `O=C(Nc1ccc2c(c1)CNC2)c1cc(Cl)cc2ccncc12` , if possible. 67.731

Entry to check: `Nc1ccncc1-c1cc(F)cc(C(=O)Nc2ccc3c(c2)CNC3)c1` 87.356

Another molecule to check: `COc1cc(-c2cc(NC(=O)c3cc(F)cc4[nH]ncc34)cc3c2CNC3)ccn1` 1.475

Try `O=C(Nc1cc2c(c(C3=CCS(=O)(=O)CC3)c1)CNC2)c1cc(F)cc2[nH]ncc12` next. 20.909
